All values here come from patent US5608095A.

# System: ICAM-1
# method_summary: Cell surface ELISA for ICAM-1 in human umbilical vein endothelial cells (HUVEC), TNF-alpha induced
# Type: cell-based
# conditions: 50 μM, average of two runs, numbers in parentheses represent negative values
outcome_measure: ICAM-1 % inh.

Worked examples, 3 compounds total:
CC(=O)Oc1ccc(OC[Si](C)(C)c2ccccc2)cc1C(C)(C)C : 73.0%
CC(C)(C)c1cc(OC[Si](C)(C)c2ccccc2)ccc1O : 80%
CC(C)(C)c1cc(OC[Si](C)(C)c2ccccc2)cc(C(C)(C)C)c1OC(=O)CCC(=O)O : 76%

Entry "CC(C)(C)c1cc(SC[Si](C)(C)c2ccccc2)cc(C(C)(C)C)c1OC(=O)CCC(=O)O" has what ICAM-1 % inh.?
79.5%

---

# Tested on: VCAM-1
# method_summary: Cell surface ELISA for VCAM-1 in human aortic smooth muscle cells (HASMC), interleukin-4 induced
# Format: cell-based
# conditions: 50 μm, experiment HSMC-2, interleukin-4, about 20 hr
# Procedure: Cell Surface ELISA for VCAM-1/ICAM-1 Proliferating human umbilical vein endothelial cells (HUVEC) or human aortic smooth muscle cells (HASMC) from Clonetics (San Diego, Calif.) were plated onto 96-well plates in 100 μL medium per well at 20,000 cells per cm^2. […] Absorbance is measured at 450 nm with a plate reader. IC50 values were determined from curves of absorbance values obtained from serial dilutions of compounds (dissolved in dimethyl sulfoxide). […]
outcome_measure: HSMC-2 % inh. of VCAM-1 (%)
Give bare numbers, in %.

CC(C)(C)c1cc(SC[Si](C)(C)c2ccccc2)cc(C(C)(C)C)c1OC(=O)CCC(=O)O [MDL 103,141] : 47.0
Cc1cc(OC[Si](C)(C)c2ccccc2)c(C)c(C)c1O [MDL 105,314] : 38.0

Moving on to another molecule below.
Entry CC(C)(C)c1cc(OC[Si](C)(C)c2ccccc2)cc(C(C)(C)C)c1OC(=O)CCC(=O)O [MDL 103,076] has what HSMC-2 % inh. of VCAM-1?
55.0

---

# method_summary: Animal parameters (food, body weight, liver weight, mortality) in rats
# Format: in vivo, male Sprague-Dawley rats
# conditions: diet 0.3%, 4 days
Can you tell me food (grams eaten per day per rat), percent of control for the items I'm about to list?
Give bare numbers, in %.

Worked examples, 5 compounds total:
CC(C)(C)c1cc(SC[Si](C)(C)c2ccccc2)ccc1O : 108
CC(C)(C)c1cc(OC[Si](C)(C)c2cccc(C(F)(F)F)c2)cc(C(C)(C)C)c1O : 112
CC(C)(C)c1cc(OC[Si](C)(C)c2ccccc2)ccc1O : 89
CC(C)(C)c1cc(OC[Si](C)(C)c2ccccc2)cc(C(C)(C)C)c1OC(=O)CCC(=O)O : 93
CN(C)c1ccc([Si](C)(C)COc2cc(C(C)(C)C)c(O)c(C(C)(C)C)c2)cc1 : 68

I have 2 compounds here; please give me food (grams eaten per day per rat), percent of control for each one.
1. CC(C)(C)c1cc(OC[Si](C)(C)c2ccc(C(F)(F)F)cc2)cc(C(C)(C)C)c1O
2. CC(=O)Oc1c(C)cc(OC[Si](C)(C)c2ccccc2)c(C)c1C

1: 98; 2: 96

I have 4 compounds here; please give me food (grams eaten per day per rat), percent of control for each one.
1. CC(C)(C)c1cc(OC[Si](C)(c2ccccc2)c2ccccc2)cc(C(C)(C)C)c1O
2. Cc1cc(OC[Si](C)(C)c2ccccc2)c(C)c(C)c1O
3. CC(C)(C)c1cc(OC[Si](C)(C)c2ccccc2)ccc1OC(=O)CCC(=O)O
4. CC(=O)Oc1c(C(C)(C)C)cc(OC[Si](C)(C)c2ccccc2)cc1C(C)(C)C

[103, 109, 90, 82]

I have 2 compounds here; please give me food (grams eaten per day per rat), percent of control for each one.
1. CC(=O)Oc1cc(C(C)(C)C)c(OC[Si](C)(C)c2ccccc2)cc1C(C)(C)C
2. CC(=O)Oc1ccc(OC[Si](C)(C)c2ccccc2)cc1C(C)(C)C

1: 108; 2: 84

---

Can you tell me body wt., percent of control for the items I'm about to list?
# method_summary: Food consumption, body and liver weight in cholesterol-fed rabbits
# Assay type: in vivo, female New Zealand White rabbits
# conditions: rabbit, diet 0.4%, 7 days
Numbers only, in %.

CC(C)(C)c1cc(OC[Si](C)(C)c2ccccc2)c(C(C)(C)C)cc1O : 97
CC(C)(C)c1cc(OC[Si](C)(C)c2ccccc2)ccc1O : 100
COc1ccc([Si](C)(C)COc2ccc(O)c(C(C)(C)C)c2)cc1 : 99
COc1ccc([Si](C)(COc2cc(C(C)(C)C)c(O)c(C(C)(C)C)c2)c2ccc(OC)cc2)cc1 : 97
CN(C)c1ccc([Si](C)(C)COc2cc(C(C)(C)C)c(O)c(C(C)(C)C)c2)cc1 : 97
CC(=O)Oc1ccc(OC[Si](C)(C)c2ccccc2)cc1C(C)(C)C : 101
CC(C)(C)c1cc(OC[Si](C)(C)c2ccc(C(F)(F)F)cc2)cc(C(C)(C)C)c1O : 101
CC(C)(C)c1cc(OC[Si](C)(c2ccccc2)c2ccccc2)cc(C(C)(C)C)c1O : 99

Moving on to another compound below.
Entry "CC(C)(C)c1cc(OC[Si](C)(c2ccccc2)c2ccccc2)ccc1O" has what body wt., percent of control?
99

---

Can you tell me body wt., percent of control for the items I'm about to list?
# method_summary: Animal parameters (food, body weight, liver weight, mortality) in rats
# Format: in vivo, male Sprague-Dawley rats
# conditions: rat, diet 0.3%, 4 days
Give bare numbers, in %.

COc1ccc([Si](C)(C)COc2ccc(O)c(C(C)(C)C)c2)cc1 : 95
CC(C)(C)c1cc(OC[Si](C)(C)c2ccccc2)c(C(C)(C)C)cc1O : 95
CC(=O)Oc1ccc(OC[Si](C)(C)c2ccccc2)cc1C(C)(C)C : 95

I have 5 compounds here; please give me body wt., percent of control for each one.
1. CC(C)(C)c1cc(OC[Si](C)(C)c2ccccc2)cc(C(C)(C)C)c1OC(=O)CCC(=O)O
2. CC(C)(C)c1cc(OC[Si](C)(C)c2ccc(C(F)(F)F)cc2)cc(C(C)(C)C)c1O
3. CC(C)(C)c1cc(OC[Si](C)(C)c2ccccc2)ccc1O
4. CC(C)(C)c1cc(OC[Si](C)(c2ccccc2)c2ccccc2)cc(C(C)(C)C)c1O
5. CC(=O)Oc1c(C)cc(OC[Si](C)(C)c2ccccc2)c(C)c1C

105
100
100
93
96

---

# method_summary: Clinical chemistries in serum of rats
# Type: in vivo, male Sprague-Dawley rats
# conditions: rat serum, diet 0.1%, 4 days
Can you tell me AST (aspartate aminotransferase), percent of control for the items I'm about to list?
One number for each entry, in %.

CC(C)(C)c1cc(OC[Si](C)(C)c2ccc(C(F)(F)F)cc2)cc(C(C)(C)C)c1O [MDL 105,975] : 89
CC(C)(C)c1cc(OC[Si](C)(C)c2ccccc2)ccc1O [MDL 103,491] : 94
CC(=O)Oc1ccc(OC[Si](C)(C)c2ccccc2)cc1C(C)(C)C [MDL 105,443] : 94

Moving on to another compound below.
Entry CN(C)c1ccc([Si](C)(C)COc2cc(C(C)(C)C)c(O)c(C(C)(C)C)c2)cc1 [MDL 104,556] has what AST (aspartate aminotransferase), percent of control?
107

---

# method_summary: Clinical chemistries in serum of rats
# Type: in vivo, male Sprague-Dawley rats
# conditions: rat serum, diet 0.1%, 4 days
Can you tell me GLUC (glucose), percent of control for the items I'm about to list?
Give bare numbers, in %.

CN(C)c1ccc([Si](C)(C)COc2cc(C(C)(C)C)c(O)c(C(C)(C)C)c2)cc1 [MDL 104,556] : 102
CC(=O)Oc1ccc(OC[Si](C)(C)c2ccccc2)cc1C(C)(C)C [MDL 105,443] : 106
CC(C)(C)c1cc(OC[Si](C)(C)c2ccccc2)ccc1O [MDL 103,491] : 101

Moving on to another compound below.
Entry CC(C)(C)c1cc(OC[Si](C)(C)c2ccc(C(F)(F)F)cc2)cc(C(C)(C)C)c1O [MDL 105,975] has what GLUC (glucose), percent of control?
110

---

# method_summary: HPLC quantitation of compound and metabolite concentration in rat serum and liver
# Assay type: in vivo, male Sprague-Dawley rats
# conditions: rat serum, diet 0.3%, 4 days
outcome_measure: Serum Parent = parent compound concentration

Worked examples, 4 compounds total:
CC(C)(C)c1cc(SC[Si](C)(C)c2ccccc2)cc(C(C)(C)C)c1OC(=O)CCC(=O)O [MDL 103,141] : 0 µg/mL
CC(=O)Oc1c(C)cc(OC[Si](C)(C)c2ccccc2)c(C)c1C [MDL 103,157] : 0 µg/mL
CC(C)(C)c1cc(OC[Si](C)(C)c2ccccc2)ccc1OC(=O)CCC(=O)O [MDL 104,399] : 0 µg/mL
CC(C)(C)c1cc(OC[Si](C)(C)c2ccccc2)cc(C(C)(C)C)c1OC(=O)CCC(=O)O [MDL 103,076] : 0 µg/mL

I have 2 compounds here; please give me Serum Parent = parent compound concentration for each one.
1. Cc1cc(OC[Si](C)(C)c2ccccc2)c(C)c(C)c1O [MDL 105,314]
2. CC(=O)Oc1ccc(OC[Si](C)(C)c2ccccc2)cc1C(C)(C)C [MDL 105,443]

0.0 µg/mL
0.0 µg/mL
